assay: NCI Yeast Anticancer Drug Screen. Data for the mlh1 rad18 strain (AID 175); details: S. cerevisiae mlh1 rad18 strain growth inhibition; at 50.0 µM (retest, dose inferred, filed as 5.0)
Compounds without any hit were thinned out: in the full panel of roughly 79,000, 15% have a hit. Active and inactive are the calls of the source. No stated cut-off is given here; in the data, active means growth inhibition above about 70%; inactive means the rest.
Log the outcome using a class from true (1) = active, false (0) = inactive

# example entries with known answers
CSC(SC)(C(=O)O)c1cc(-c2c(Cl)cccc2Cl)no1	false (0)
CCCOc1ccc(-c2nc(-c3ccc(N=Cc4ccc(N(CCOS(C)(=O)=O)CCOS(C)(=O)=O)cc4C)cc3)cs2)cc1	true (1)
N/N=C(\N)c1ccc2ccc3cccnc3c2n1	true (1)

For this molecule, state the assay outcome: "COc1cc2c(ccc3cc4cccc[n+]4cc32)c(Br)c1OC"
true (1)

What outcome does the record of this test show for COc1ccc2c(c1OC)C(C(Cl)(Cl)Cl)N1CCc3cc4c(cc3C1=C2)OCO4 (stereo not given) ?
false (0)

Write down the call the test reported for this molecule. Item: CC(C)C(C)OC(=O)Nc1cccc(O)c1 (stereo not given)
false (0)

Recorded call for "N#CSCc1ccc(CSC#N)c(Cl)c1" ?
true (1)

Entry "CCc1cc2c([nH]c3ccccc32)c(C)c1CCN(C)C" : call = ?
false (0)

# fetch the recorded call for CN(C)c1ccc(C(c2cc3c(cc2O)OCO3)N2CCCCC2)cc1 (stereo not given) here
true (1)

What call does the record list for CSC(=S)NNC(C)c1nccc2ccccc12 (stereo not given) ?
true (1)
